We begin with a simple list: items and their reported pIC50.
# measured-target: Dual specificity protein phosphatase 6 (Rattus norvegicus)
# Sequence (Q64346 whole entry): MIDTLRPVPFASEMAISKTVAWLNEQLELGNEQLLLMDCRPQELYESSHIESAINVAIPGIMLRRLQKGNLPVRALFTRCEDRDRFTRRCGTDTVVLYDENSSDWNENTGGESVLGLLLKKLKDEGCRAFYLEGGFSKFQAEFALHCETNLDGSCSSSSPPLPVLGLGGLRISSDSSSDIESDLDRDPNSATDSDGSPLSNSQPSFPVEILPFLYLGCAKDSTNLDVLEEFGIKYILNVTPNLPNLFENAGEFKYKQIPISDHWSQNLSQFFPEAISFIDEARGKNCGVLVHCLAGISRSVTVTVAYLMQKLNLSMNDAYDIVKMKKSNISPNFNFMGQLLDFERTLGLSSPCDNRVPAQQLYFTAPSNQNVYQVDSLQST
pIC50: −log10 of the molar value.
property-measured: pIC50

>  <compound>
CCOc1ccc2noc3c2c1C(=O)c1ccccc1-3

>  <measured>
< 4.30

$$$$
>  <compound>
O=C1Nc2ccccc2SC(c2ccccc2)C1O (stereo not drawn)

>  <measured>
< 4.30

$$$$
>  <compound>
CCCCNC(=O)c1c(N)n(CCCOC)c2nc3ccccc3nc12

>  <measured>
< 4.30

$$$$
>  <compound>
Cc1c(N=c2c(=O)c3ccccc3c2=O)c(=O)n(-c2ccccc2)n1C

>  <measured>
5.09

$$$$
>  <compound>
COc1ccc(Cn2c(C)nc3c(c2=O)c2nc4ccccc4nc2n3Cc2ccco2)cc1

>  <measured>
< 4.30

$$$$
>  <compound>
O=C1C(=C2C(=O)c3ccccc3C2=O)Nc2ccccc21

>  <measured>
< 4.30

$$$$
>  <compound>
Cc1cccc(N2CCN(C(=O)Cc3c(C(=O)O)[nH]c4ccc(Cl)cc34)CC2)c1C

>  <measured>
< 4.30

$$$$
>  <compound>
O=C(c1cccs1)c1no[n+]([O-])c1C(=O)c1cccs1

>  <measured>
< 4.30

$$$$
>  <compound>
COc1ccc(-c2cc3nc(C4CCN(C(=O)OC(C)(C)C)CC4)c(C(=O)O)cn3n2)cc1

>  <measured>
< 4.30

$$$$
>  <compound>
COCCCn1c(N)c(C(=O)NCCC(C)C)c2nc3ccccc3nc21

>  <measured>
< 4.30

$$$$
>  <compound>
CC1=C(/C=C/C(C)=C/C=C/C(C)=C/C(=O)O)C(C)(C)CCC1 [ALL-TRANS-RETINOIC ACID]

>  <measured>
< 4.30

$$$$
>  <compound>
CCn1c(SCC(=O)Nc2ccc3c(c2)c2ccccc2n3CC)nnc1-c1ccco1

>  <measured>
< 4.30

$$$$
>  <compound>
CCn1nc(-c2cccs2)nc2c(=O)n(C)c(=O)nc1-2

>  <measured>
6.35

$$$$
>  <compound>
Cc1nc2cc(-c3cccc(F)c3)nn2c(C)c1CCC(=O)N1CCC2(CC1)OCCO2

>  <measured>
< 4.30

$$$$
>  <compound>
Cc1nc2c(C(=O)NCCC3=CCCCC3)c[nH]n2c(=O)c1Cl

>  <measured>
< 4.30

$$$$
>  <compound>
Nc1c(N2CCCC2)cc(Cl)c2nonc12

>  <measured>
< 4.30

$$$$
>  <compound>
CCn1nc(-c2ccccc2)nc2c(=O)n(C)c(=O)nc1-2

>  <measured>
6.25

$$$$
>  <compound>
COc1ccc(-n2c(NC(=O)c3ccco3)c(C#N)c3nc4ccccc4nc32)cc1

>  <measured>
4.85

$$$$
>  <compound>
[O-]/[N+](=C\c1ccc(OC(F)F)cc1)c1ccccc1

>  <measured>
< 4.30

$$$$
>  <compound>
O=C(Nc1ccccc1)c1ccc2nc(-c3ccco3)c(-c3ccco3)nc2c1

>  <measured>
< 4.30

$$$$
>  <compound>
CC(C)Cn1c(N)c(C(=O)COC(=O)c2cc(-c3ccco3)nc3ccccc23)c(=O)n(C)c1=O

>  <measured>
< 4.30

$$$$
>  <compound>
[O-]/[N+](=C/c1ccc(F)cc1)c1ccccc1

>  <measured>
< 4.30

$$$$
>  <compound>
CCOc1ccc(-c2cc3nc(C4CCN(C(=O)OC(C)(C)C)CC4)c(C(=O)O)cn3n2)cc1

>  <measured>
< 4.30

$$$$
>  <compound>
O=C(Nc1ccc2nc(-c3ccco3)c(-c3ccco3)nc2c1)N1CCCCCC1

>  <measured>
< 4.30

$$$$
>  <compound>
O=C1C=Cc2ccccc2C1=O [1,2-dihydronaphthalene-1,2-dione]

>  <measured>
< 4.30

$$$$
>  <compound>
CCCSc1nnc(NC(=O)c2sc3nc(-c4cccs4)ccc3c2N)s1

>  <measured>
< 4.30

$$$$
>  <compound>
COc1ccc(Br)cc1C=c1sc2nc(-c3ccco3)nn2c1=O

>  <measured>
< 4.30

$$$$
>  <compound>
Cn1ncnc2c(=O)n(C)c(=O)nc1-2

>  <measured>
6.27

$$$$
